Biological target: Melatonin receptor type 1A (Homo sapiens, UniProt P48039)
Sequence (P48039 whole entry): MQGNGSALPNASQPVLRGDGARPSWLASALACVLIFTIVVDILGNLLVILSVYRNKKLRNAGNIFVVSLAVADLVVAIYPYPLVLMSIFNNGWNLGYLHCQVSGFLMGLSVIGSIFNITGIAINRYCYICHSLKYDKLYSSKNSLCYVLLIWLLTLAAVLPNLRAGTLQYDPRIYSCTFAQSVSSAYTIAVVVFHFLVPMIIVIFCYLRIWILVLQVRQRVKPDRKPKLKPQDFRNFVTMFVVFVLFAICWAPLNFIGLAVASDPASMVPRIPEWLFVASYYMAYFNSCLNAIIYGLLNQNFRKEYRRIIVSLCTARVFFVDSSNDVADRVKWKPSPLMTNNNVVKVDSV
Assay: Displacement of 2-[125I]iodomelatonin from human MT1 receptor expressed in CHO cells
Type: cell-based
Details: read-out: Ki
Checkbox rule: Ki lower than 100 nM = Met; Ki not lower than 100 nM = Not met.

COMPOUND: CCC(=O)NCC1Cc2ccccc2Cc2ccc(OC)cc21 (stereo unspecified)
TGT: Melatonin receptor type 1A (Homo sapiens, UniProt P48039)
ANSWER LABEL: Met
//
COMPOUND: COc1ccc2[nH]c(CN3CCCC3)c(CCNC(C)=O)c2c1
TGT: Melatonin receptor type 1A (Homo sapiens, UniProt P48039)
ANSWER LABEL: Not met
//
COMPOUND: COc1ccc2c(c1)CCN2Cc1[nH]c2ccc(OC)cc2c1CCNC(C)=O
TGT: Melatonin receptor type 1A (Homo sapiens, UniProt P48039)
ANSWER LABEL: Met
//
COMPOUND: COc1cccc(/C(=C/CNC(C)=O)c2ccccc2)c1
TGT: Melatonin receptor type 1A (Homo sapiens, UniProt P48039)
ANSWER LABEL: Not met
//
COMPOUND: COc1ccc2[nH]c(CN3CCc4cc(Br)ccc43)c(CCNC(C)=O)c2c1
TGT: Melatonin receptor type 1A (Homo sapiens, UniProt P48039)
ANSWER LABEL: Met
//
COMPOUND: COc1ccc2c(c1)[C@@H](CCNC(=O)C1CCC1)C[C@@H](c1ccccc1)C2
TGT: Melatonin receptor type 1A (Homo sapiens, UniProt P48039)
ANSWER LABEL: Not met

###

Target: Melatonin receptor type 1B (Homo sapiens, UniProt P49286)
Sequence (P49286 whole entry): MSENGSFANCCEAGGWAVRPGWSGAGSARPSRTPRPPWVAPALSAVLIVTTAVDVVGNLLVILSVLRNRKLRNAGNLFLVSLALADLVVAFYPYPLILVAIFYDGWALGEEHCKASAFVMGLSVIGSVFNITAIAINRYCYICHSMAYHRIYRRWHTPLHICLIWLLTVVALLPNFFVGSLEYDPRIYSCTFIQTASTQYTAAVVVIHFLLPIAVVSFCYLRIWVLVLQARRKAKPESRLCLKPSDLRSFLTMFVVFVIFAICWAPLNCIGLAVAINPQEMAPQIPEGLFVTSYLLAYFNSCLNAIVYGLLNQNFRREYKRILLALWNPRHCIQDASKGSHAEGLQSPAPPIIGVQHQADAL
Test: Displacement of 2-[125I]iodomelatonin from human MT2 receptor expressed in CHO cells
Format: cell-based
Settings: read-out: Ki
Could you mark each record criterion met if its Ki falls strictly under 7 nM, and criterion not met if it equals or exceeds it?

COMPOUND: COc1ccc2[nH]c(CN3CCc4ccccc43)c(CCNC(C)=O)c2c1
ANSWER LABEL: criterion met
//
COMPOUND: CCC(=O)NCC1Cc2ccccc2Cc2ccc(OC)cc21 (stereo unspecified)
ANSWER LABEL: criterion met
//
COMPOUND: COc1ccc2[nH]c(CN3CCc4ccccc43)c(CCNC(=O)C3CCC3)c2c1
ANSWER LABEL: criterion not met
//
COMPOUND: CCC(=O)NC1Cc2ccccc2C(c2ccccc2)C1 (stereo unspecified)
ANSWER LABEL: criterion met
//
COMPOUND: COc1ccc2[nH]c(CN3c4ccccc4CC3C)c(CCNC(C)=O)c2c1 (stereo unspecified)
ANSWER LABEL: criterion not met

###

Biological target: Melatonin receptor type 1A (Homo sapiens)
Assay: Displacement of 2-[125I]iodomelatonin from human MT1 receptor expressed in CHO cells
Assay type: cell-based
Conditions: read-out: pKi (converted)
Listed below: Ki values for each entry.
VALUE TYPE: Ki (nM)

COMPOUND: COc1ccc2[nH]c(CN3CCc4ccccc43)c(CCNC(C)=O)c2c1
RESULT VALUE: 115

COMPOUND: COc1ccc2c(c1)CC1Cn3c(c(CCNC(C)=O)c4cc(OC)ccc43)CN21 (centres undefined)
RESULT VALUE: 1780

COMPOUND: COc1ccc2c(c1)c(CCNC(C)=O)c1n2CC2Cc3ccccc3N2C1 (centres undefined)
RESULT VALUE: 302

COMPOUND: COc1ccc2[nH]c(CN3CCc4ccc([N+](=O)[O-])cc43)c(CCNC(C)=O)c2c1
RESULT VALUE: 309

###

Catalogue of log10 Ki values
Target: Melatonin receptor type 1B (Homo sapiens, UniProt P49286)
Assay: Displacement of 2-[125I]iodomelatonin from human MT2 receptor expressed in CHO cells
Type: cell-based
Conditions: read-out: Ki
VALUE TYPE: log10 Ki (log10 of the value in nM)

MOLECULE: CCCC(=O)NCCc1c(CN2c3ccccc3CC2C)[nH]c2ccc(OC)cc12 (configuration not stated)
log10 Ki: 0.90
--
MOLECULE: COc1ccc2[nH]c(CN3CCCC3)c(CCNC(C)=O)c2c1
log10 Ki: 1.40
--
MOLECULE: CCC(=O)NCc1cc2c(OC)cccc2n1Cc1ccc(Cl)cc1
log10 Ki: 0.95
--
MOLECULE: COc1ccc2[nH]c(CN3CCc4cc(Br)ccc43)c(CCNC(C)=O)c2c1
log10 Ki: 1.48
--
MOLECULE: COc1ccc2c(c1)[C@@H](CCNC(=O)C1CCC1)C[C@@H](c1ccccc1)C2
log10 Ki: -0.05
--
MOLECULE: COc1cccc(C(CCNC(C)=O)c2ccc3ccccc3c2)c1 (configuration not stated)
log10 Ki: -0.96
--
MOLECULE: COc1ccc2[nH]c(CN3CCc4cc(C)ccc43)c(CCNC(C)=O)c2c1
log10 Ki: 1.18
--
MOLECULE: COc1ccc2[nH]c(CN3CCc4ccc(N)cc43)c(CCNC(C)=O)c2c1
log10 Ki: 2.07
--
MOLECULE: COc1cccc(Cc2oc3ccc(OC)cc3c2CCNC(C)=O)c1
log10 Ki: -0.60
--
MOLECULE: COc1cccc(/C(=C/CNC(C)=O)c2ccccc2)c1
log10 Ki: 0.40
--
MOLECULE: COc1ccc2[nH]c(CN3CCc4ccc([N+](=O)[O-])cc43)c(CCNC(C)=O)c2c1
log10 Ki: 1.42
--
MOLECULE: CCC(=O)NCCc1c(CN2CCc3ccccc32)[nH]c2ccc(OC)cc12
log10 Ki: 1.16

###

Biological target: Melatonin receptor type 1A (Homo sapiens, UniProt P48039)
Test: Displacement of 2-[125I]iodomelatonin from human MT1 receptor expressed in CHO cells
Format: cell-based
Conditions: read-out: Ki
VALUE TYPE: Ki (nM)

COMPOUND: COc1ccc2[nH]c(CN3CCc4ccc(N)cc43)c(CCNC(C)=O)c2c1
RESULT VALUE: 108
//
COMPOUND: COc1cccc(Cc2oc3ccc(OC)cc3c2CCNC(C)=O)c1
RESULT VALUE: 27
//
COMPOUND: CCCC(=O)NCCc1c(CN2c3ccccc3CC2C)[nH]c2ccc(OC)cc12 (stereo unspecified)
RESULT VALUE: 41
//
COMPOUND: COc1ccc2[nH]c(CN3CCc4ccccc43)c(CCNC(=O)C3CCC3)c2c1
RESULT VALUE: 1400
//
COMPOUND: CCC(=O)NC1Cc2ccccc2C(c2ccccc2)C1 (stereo unspecified)
RESULT VALUE: 59
//
COMPOUND: COc1ccc2[nH]c(CN3c4ccccc4CC3C)c(CCNC(C)=O)c2c1 (stereo unspecified)
RESULT VALUE: 148
